target: Proteasome Macropain subunit MB1 (Homo sapiens) (UniProt P28074)
Sequence (P28074 whole entry): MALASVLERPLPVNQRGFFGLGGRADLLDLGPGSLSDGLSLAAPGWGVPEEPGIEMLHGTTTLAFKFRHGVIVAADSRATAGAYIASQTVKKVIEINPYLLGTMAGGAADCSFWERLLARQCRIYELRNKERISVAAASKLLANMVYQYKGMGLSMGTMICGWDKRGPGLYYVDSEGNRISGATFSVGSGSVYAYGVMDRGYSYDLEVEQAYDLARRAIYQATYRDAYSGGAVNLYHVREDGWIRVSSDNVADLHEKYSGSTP
assay_info: Inhibition of chymotrypsin-like activity of human 20S proteasome at 100 nM using Suc-Leu-Leu-Val-Tyr-AMC as substrate by fluorescence assay relative to control
assay_endpoint: inhibition (%)
Numbers only, in %.

Data request: Please look up its inhibition: Cc1ccc(S(=O)(=O)Nc2cc(SC(C)C(=O)N[C@@H](CC(C)C)B(O)O)c(O)c3ccccc23)cc1 (some centres undefined)
Data returned: 35.5

Data request: Please look up its inhibition: `CC(C)C[C@H](NC(=O)CCSc1cc(NS(=O)(=O)c2ccc(Cl)cc2)c2ccccc2c1O)B(O)O`
Data returned: 52.5

For the 2 molecules below, give their inhibition values.
1. CC(C)C[C@H](NC(=O)CSc1cc(NS(=O)(=O)c2ccc(Cl)cc2)c2ccccc2c1O)B(O)O
2. CC(C)C[C@H](NC(=O)C(C)Sc1cc(NS(=O)(=O)c2cccs2)c2ccccc2c1O)B(O)O (some centres undefined)

Data returned:
1. 45.1
2. 41.1

For the 5 molecules below, give their inhibition values.
1. CC(C)C[C@H](NC(=O)CSc1cc(NS(=O)(=O)c2ccccc2)c2ccccc2c1O)B(O)O
2. Cc1ccc(S(=O)(=O)Nc2cc(SCC(=O)N[C@@H](CC(C)C)B(O)O)c(O)c3ccccc23)cc1
3. CC(C)C[C@H](NC(=O)CCSc1cc(NS(=O)(=O)c2cccs2)c2ccccc2c1O)B(O)O
4. CC(C)C[C@H](NC(=O)CSc1cc(NS(=O)(=O)c2cccs2)c2ccccc2c1O)B(O)O
5. CC(C)C[C@H](NC(=O)C(C)Sc1cc(NS(=O)(=O)c2ccc(Cl)cc2)c2ccccc2c1O)B(O)O (stereo in doubt; 3c-1)

Data returned:
[32.5, 36.6, 38.3, 33.3, 39.4]
